SH2 binding enrichment reference
- targetOrTestSystem: Grb2 SH2 (UniProt P62993)
- Sequence (P62993 whole entry, looked up): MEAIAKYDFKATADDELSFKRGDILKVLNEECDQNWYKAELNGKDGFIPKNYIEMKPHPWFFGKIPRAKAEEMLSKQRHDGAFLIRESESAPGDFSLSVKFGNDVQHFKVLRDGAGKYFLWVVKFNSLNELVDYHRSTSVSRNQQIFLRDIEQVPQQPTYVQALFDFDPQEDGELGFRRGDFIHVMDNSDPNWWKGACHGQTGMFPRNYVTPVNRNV
- protocolNotes: SH2 binding enrichment of the phosphorylated peptide, bacterial display (enrichment ratio); higher = better substrate or ligand; peptides without Tyr show the background
measurementKind: SH2 binding enrichment

| orderedResidues | experimentalValue |
| --- | --- |
| DAVAVYHGKIS [SH2D1A_Y7] | 0.717 |
| TRFDEYLEVTK [MAP1A_Y2217_H2214Y_YF] | 0.814 |
| RMDGKYACSYT [FLNB_Y704_T703K] | 0.997 |
| PLLEFYWDIFT [CDAN1_Y713_R714W_YF] | 0.926 |
| EQQNMYRLKVL [ABCC6_Y372] | 0.79 |
| KKMKRYHVGKV [HARS2_Y151] | 1.14 |
| LCHELYNTIRD [PBRM1_Y54_V49L] | 1.21 |

---

- targetOrTestSystem: FGFR3 (UniProt P22607)
- Sequence (P22607 whole entry, looked up): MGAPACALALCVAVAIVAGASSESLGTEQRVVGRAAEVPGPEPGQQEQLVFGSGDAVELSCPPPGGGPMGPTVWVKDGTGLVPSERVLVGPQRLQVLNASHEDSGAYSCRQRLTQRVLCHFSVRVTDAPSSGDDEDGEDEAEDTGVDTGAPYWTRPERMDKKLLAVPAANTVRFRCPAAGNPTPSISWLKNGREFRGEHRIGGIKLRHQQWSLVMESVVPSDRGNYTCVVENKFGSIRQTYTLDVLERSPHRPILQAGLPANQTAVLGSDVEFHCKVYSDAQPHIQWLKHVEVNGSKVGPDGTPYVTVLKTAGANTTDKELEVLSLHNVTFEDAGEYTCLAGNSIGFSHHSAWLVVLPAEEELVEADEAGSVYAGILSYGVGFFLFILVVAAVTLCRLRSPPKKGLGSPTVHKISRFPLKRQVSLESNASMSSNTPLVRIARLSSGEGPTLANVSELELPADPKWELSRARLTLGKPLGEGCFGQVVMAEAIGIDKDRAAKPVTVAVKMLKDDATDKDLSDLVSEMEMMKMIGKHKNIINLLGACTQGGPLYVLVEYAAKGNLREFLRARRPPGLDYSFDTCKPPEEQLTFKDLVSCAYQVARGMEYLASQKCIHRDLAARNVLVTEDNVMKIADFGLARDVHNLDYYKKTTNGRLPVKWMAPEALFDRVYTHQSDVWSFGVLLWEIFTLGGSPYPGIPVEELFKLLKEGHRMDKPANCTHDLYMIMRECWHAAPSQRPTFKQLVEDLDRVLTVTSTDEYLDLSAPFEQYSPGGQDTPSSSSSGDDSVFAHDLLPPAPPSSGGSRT
- protocolNotes: phosphorylation enrichment, bacterial display (enrichment ratio); higher = better substrate or ligand; peptides without Tyr show the background
Threshold check on phosphorylation enrichment: at or above 0.7 gives True, strictly below gives False.

| orderedResidues | targetOrTestSystem | assignedCategory |
| --- | --- | --- |
| EWCSPYGLTPR [GRIN3B_Y601_R598C] | FGFR3 (UniProt P22607) | False |
| EEGESYVCSSD [DCX_Y125] | FGFR3 (UniProt P22607) | True |
| VNTTLYEKFTF [TEK_Y1108_YF] | FGFR3 (UniProt P22607) | False |
| DMLYQYLKQIE [RPAP3_Y569] | FGFR3 (UniProt P22607) | True |
| KPEKTYGLRKE [CEP43_Y267] | FGFR3 (UniProt P22607) | False |
| LRYDVYGGENE [STOX1_Y610_E608D] | FGFR3 (UniProt P22607) | True |

---

- Tested on: c-Abl (mouse)
- protocolNotes: phosphorylation enrichment, bacterial display (enrichment ratio); higher = better substrate or ligand; peptides without Tyr show the background

| orderedResidues | targetOrTestSystem | phosphorylation enrichment |
| --- | --- | --- |
| TTGGFYSFGGG [KRT24_Y120_A115T_YF] | c-Abl (mouse) | 0.585 |
| MRALIYNSSTA [PLEKHA7_Y243] | c-Abl (mouse) | 0.741 |
| NDKLCYEVSSP [CDH13_Y66_R65C] | c-Abl (mouse) | 0.837 |
| QGIYGYHHYMQ [UFSP2_Y287] | c-Abl (mouse) | 5.12 |
| VIERSYTSADG [DHCR7_Y382_C380R] | c-Abl (mouse) | 0.565 |
| KASIMYPSNNC [CXCL11_Y52] | c-Abl (mouse) | 0.518 |
| PFIDSYEKDVA [PGM1_Y521_L516P_YF] | c-Abl (mouse) | 0.51 |
| LGMSQYFRLFN [CPT2_Y217_D213G] | c-Abl (mouse) | 0.581 |
| MAALSYVSEIG [BPIFB2_Y36_K31M] | c-Abl (mouse) | 0.615 |
| SSFDIYHLSRE [KIR3DL2_Y253_YF] | c-Abl (mouse) | 0.807 |
| LSDGPYSSPFE [EPOR_Y485_N487S_YF] | c-Abl (mouse) | 0.468 |
| TVFENYVADIK [RHOA_Y42_E47K] | c-Abl (mouse) | 0.699 |
| QDIMAYRGREV [BCL6_Y157] | c-Abl (mouse) | 0.536 |
| WPQKLYNNFVN [MYO5C_Y526_L522P] | c-Abl (mouse) | 0.687 |

Ref: the supplement of paper PMC10065799
